tested.system: HIV-1 fusion (gp160 induced cell-cell fusion; HeLa P4 cell line expressing CCR5 and CD4 / CHO-Tat10 cell line) (Homo sapiens)
protocol.text: gp160 induced cell-cell fusion assay
Assay type: cell-based
details: HeLa P4 / CHO-Tat10 cells, read-out: IC50
Below: a set of entries, each annotated with reported IC50.
Express your answer in nM, writing the number without its unit.

- molecule: "CC(=O)N1CCc2nc(C)n(C3CCN(C(C)C[C@H](NC(=O)C4CCC4(F)F)c4ccccc4)CC3)c2C1 (stereo partly drawn)"
  endpoint: "IC50"
  measured: 0.5
- molecule: "Cc1noc(C2CCN(C(C)C[C@H](NC(=O)OC(C)(C)C)c3ccccc3)CC2)n1 (single isomer, unassigned) [Example 106A]"
  endpoint: "IC50"
  measured: 362
- molecule: "COC(=O)N[C@@H](CC(C)N1CCC(n2c(C)nc3c2CN(C(C)=O)CC3)CC1)c1cccc(F)c1 (stereo partly drawn)"
  endpoint: "IC50"
  measured: 13

Challenge: Which IC50 value belongs to CC(C)c1noc(C2CCN(C(C)C[C@H](NC(=O)C3CCC3)c3ccccc3)CC2)n1 (stereo partly drawn) ?
Response given: 94.6

Challenge: I am curious: what IC50 value has been reported for COC(=O)N1CCc2c(nc(C)n2C2CCN(C(C)CC(NC(=O)C3CC3)c3cccc(F)c3)CC2)C1 (mixture of isomers) ?
Response given: 1.8

Challenge: Item CC(=O)N1CCc2c(nc(C)n2C2CCN(C(C)C[C@H](NC(=O)C(C)C)c3cccc(F)c3)CC2)C1 (single isomer, unassigned) has what recorded IC50?
Response given: 12.9

Challenge: Using the record for CC(=O)N1CCc2nc(C)n(C3CCN(C(C)C[C@H](NC(=O)C4(C)CC4)c4ccccc4)CC3)c2C1 (stereo partly drawn) , report its IC50.
Response given: 0.3

Challenge: Recorded IC50 for CC(=O)N1CCc2nc(C)n(C3CCN(C(C)C[C@H](NC(=O)CC(C)C)c4cccc(F)c4)CC3)c2C1 (single isomer, unassigned) , please?
Response given: 0.4

Challenge: Can you look up the measured IC50 of CC(C)Cc1nnc(C2CCN(C(C)CC(NC(=O)C3CCC(F)(F)CC3)c3ccccc3)CC2)o1 (mixture of isomers) for me?
Response given: 5.9

====

tested.system: HIV-1 fusion (gp160 induced cell-cell fusion; HeLa P4 cell line expressing CCR5 and CD4 / CHO-Tat10 cell line) (Homo sapiens, UniProt P51681)
Sequence (P51681 whole entry, the tested form may be a part): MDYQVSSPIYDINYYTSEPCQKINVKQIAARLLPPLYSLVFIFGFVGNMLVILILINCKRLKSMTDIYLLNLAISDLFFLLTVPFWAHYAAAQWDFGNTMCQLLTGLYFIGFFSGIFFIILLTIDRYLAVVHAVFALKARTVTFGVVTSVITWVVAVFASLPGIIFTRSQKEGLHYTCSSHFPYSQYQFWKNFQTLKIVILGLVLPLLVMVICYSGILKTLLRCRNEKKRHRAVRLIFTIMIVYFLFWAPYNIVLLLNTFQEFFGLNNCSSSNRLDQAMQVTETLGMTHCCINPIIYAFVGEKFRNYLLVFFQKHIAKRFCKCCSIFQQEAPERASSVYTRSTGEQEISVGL
protocol.text: gp160 induced cell-cell fusion assay
Type: cell-based
details: HeLa P4 / CHO-Tat10 cells, read-out: IC50
endpoint: IC50 (nM)
# value in nM; strip the unit string

// below: answered compounds
- compound: "CCC(=O)N[C@@H](CC(C)N1CCC(n2c(C)nc3c2CN(C(=O)C(C)C)CC3)CC1)c1cccc(F)c1 (stereo partly drawn)"
  value.unit: "nM"
  IC50: 0.6
- compound: "COC(=O)N1CCc2c(nc(C)n2C2CCN(C(C)CC(NC(=O)C(C)C)c3cccc(F)c3)CC2)C1 (mixture of isomers)"
  value.unit: "nM"
  IC50: 0.6
- compound: "CCOC(=O)N1CCc2c(nc(C)n2C2CCN(C(C)C[C@H](NC(=O)CC)c3cccc(F)c3)CC2)C1 (single isomer, unassigned)"
  value.unit: "nM"
  IC50: 19.1

In the following, a different compound is considered.
Challenge: // IC50 lookup, key: CC(=O)N1CCc2nc(C)n(C3CCN(C(C)C[C@H](NC(=O)C4CCOCC4)c4cccc(F)c4)CC3)c2C1 (stereo partly drawn)
Response given: 1
